src = ChEMBL document CHEMBL4616598

# assay_system: 5-hydroxytryptamine receptor 1A (Homo sapiens)
# Sequence (P08908 whole entry): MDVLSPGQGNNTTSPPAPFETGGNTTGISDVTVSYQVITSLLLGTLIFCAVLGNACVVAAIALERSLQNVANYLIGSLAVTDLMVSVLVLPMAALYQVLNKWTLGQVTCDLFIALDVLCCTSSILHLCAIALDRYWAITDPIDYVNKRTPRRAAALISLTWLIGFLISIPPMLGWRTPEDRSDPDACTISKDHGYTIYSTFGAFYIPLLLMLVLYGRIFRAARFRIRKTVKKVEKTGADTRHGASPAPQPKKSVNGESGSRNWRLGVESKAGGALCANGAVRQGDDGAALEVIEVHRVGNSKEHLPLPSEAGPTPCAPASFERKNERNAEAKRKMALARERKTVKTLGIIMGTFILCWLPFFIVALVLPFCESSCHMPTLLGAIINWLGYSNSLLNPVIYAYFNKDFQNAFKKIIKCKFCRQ
pKi: −log10 of the molar value.
# label = Yes if pKi >= 8 else No

Exam item: decide whether the reported pKi for CCCN(CCC)[C@@H]1CCc2c(cccc2-c2ccccc2F)C1 is at least 8.
No

Textbook exercise: given the entry CN(C)C1CCc2c(cccc2-c2cccc(F)c2)C1 (racemic) , state whether its pKi is greater than or equal to 8.
No

Assess whether reported pKi for CN(C)[C@@H]1CCc2c(cccc2-c2ccc(Cl)cc2)C1 sits at 8 or higher.
No

Is pKi for CN(C)C1CCc2c(cccc2-c2ccc(F)cc2)C1 (racemic) at or above 8?
No

Check this compound for pKi at or above 8: CCCN(CCC)[C@H]1CCc2c(cccc2-c2ccccc2F)C1
Yes

Evaluate CCCN(CCC)[C@H]1CCc2c(cccc2-c2ccccc2Cl)C1 : pKi at minimum 8?
Yes

Is it the case that CN(C)[C@@H]1CCc2c(cccc2-c2cc(C(F)(F)F)cc(C(F)(F)F)c2)C1 has pKi reaching or exceeding 8?
No

Decide: is the reported value of pKi for CN(C)C1CCc2c(cccc2-c2cc(Cl)cc(Cl)c2)C1 (racemic) equal to or greater than 8?
No

Assess whether reported pKi for CCCN(CCC)[C@@H]1CCc2c(cccc2-c2ccccc2Cl)C1 sits at 8 or higher.
No

Please tell me: is the compound CN(C)C1CCc2c(cccc2C2CCCC2)C1 (racemic) at or over 8 in terms of pKi?
No

* * *

These records show log10 Ki for 5-hydroxytryptamine receptor 7 (Homo sapiens).
In our notation, the value equals log10 of Ki in nM.

# value lookup — system 5-hydroxytryptamine receptor 7 (Homo sapiens), readout log10 Ki, item CN(C)C1CCc2c(cccc2-c2cccc(Cl)c2)C1 (racemic)
1.41

I'm curious: which log10 Ki was measured for CN(C)[C@H]1CCc2c(cccc2-c2ccco2)C1 tested on 5-hydroxytryptamine receptor 7 (Homo sapiens)?
1.85

Record CCCN(CCC)[C@@H]1CCc2c(cccc2-c2ccccc2)C1 : what is its log10 Ki with 5-hydroxytryptamine receptor 7 (Homo sapiens)?
2.28

Given the entry CN(C)[C@@H]1CCc2c(cccc2-c2cccn2C)C1 , what log10 Ki was observed with 5-hydroxytryptamine receptor 7 (Homo sapiens)?
2.78

Request: log10 Ki, test system 5-hydroxytryptamine receptor 7 (Homo sapiens), entry CN(C)[C@H]1CCc2c(cccc2-c2ccccc2)C1
0.98

Tell me reported log10 Ki for CN(C)C1CCc2c(cccc2-c2ccc(F)cc2Cl)C1 (racemic) , tested with 5-hydroxytryptamine receptor 7 (Homo sapiens).
Sequence (P34969 whole entry): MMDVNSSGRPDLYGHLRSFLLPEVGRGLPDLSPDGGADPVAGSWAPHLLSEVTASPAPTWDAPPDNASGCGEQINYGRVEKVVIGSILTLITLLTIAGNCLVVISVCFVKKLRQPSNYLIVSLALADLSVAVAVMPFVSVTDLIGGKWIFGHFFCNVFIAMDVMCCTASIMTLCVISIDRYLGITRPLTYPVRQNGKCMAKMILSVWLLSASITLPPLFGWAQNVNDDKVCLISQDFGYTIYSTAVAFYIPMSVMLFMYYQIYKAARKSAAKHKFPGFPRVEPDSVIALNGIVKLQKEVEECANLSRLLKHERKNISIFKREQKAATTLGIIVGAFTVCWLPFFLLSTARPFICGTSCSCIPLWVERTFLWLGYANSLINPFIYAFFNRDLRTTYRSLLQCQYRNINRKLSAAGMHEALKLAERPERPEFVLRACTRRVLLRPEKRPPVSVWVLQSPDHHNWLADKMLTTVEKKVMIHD
1.20

Enter reported log10 Ki observed with 5-hydroxytryptamine receptor 7 (Homo sapiens) for CN(C)C1CCc2c(cccc2-c2cccc3ccccc23)C1 (racemic)
1.34

For the record CN(C)C1CCc2c(cccc2-c2cccc(F)c2)C1 (racemic) , what value of log10 Ki is listed for 5-hydroxytryptamine receptor 7 (Homo sapiens)?
1.26

Lab request: please report log10 Ki under test system 5-hydroxytryptamine receptor 7 (Homo sapiens) for CN(C)[C@H]1CCc2c(cccc2-c2cccn2C)C1
1.52

Item: CN(C)[C@@H]1CCc2c(cccc2-c2ccc(Cl)cc2)C1 Test system: 5-hydroxytryptamine receptor 7 (Homo sapiens) Read-out: log10 Ki Value: ?
1.92

Lookup: log10 Ki / 5-hydroxytryptamine receptor 7 (Homo sapiens) / CN(C)[C@H]1CCc2c(cccc2-c2cccs2)C1
1.23

Record CN(C)[C@@H]1CCc2c(cccc2-c2cccs2)C1 : what is its log10 Ki with 5-hydroxytryptamine receptor 7 (Homo sapiens)?
2.26

Missing value: log10 Ki, 5-hydroxytryptamine receptor 7 (Homo sapiens), entry CN(C)[C@@H]1CCc2c(cccc2-c2ccccc2F)C1 . Fill in?
2.87

Which log10 Ki is reported with 5-hydroxytryptamine receptor 7 (Homo sapiens) for this entry: CN(C)[C@@H]1CCc2c(cccc2-c2ccco2)C1 ?
3.41

* * *

measured_endpoint: Ki (nM)
The reply should contain only the number, in nM.

Which Ki is reported with 5-hydroxytryptamine receptor 1A (Homo sapiens, UniProt P08908) for this entry: CN(C)C1CCc2c(cccc2-c2cccc(Cl)c2)C1 (racemic) ?
82

// fetch 5-hydroxytryptamine receptor 1A (Homo sapiens, UniProt P08908) Ki for CN(C)[C@H]1CCc2c(cccc2-c2cccs2)C1
4.5

Given the entry CN(C)[C@@H]1CCc2c(cccc2-c2cccs2)C1 , what Ki was observed with 5-hydroxytryptamine receptor 1A (Homo sapiens, UniProt P08908)?
150

Recorded Ki for CN(C)C1CCc2c(cccc2-c2c3ccccc3cc3ccccc23)C1 (racemic) with 5-hydroxytryptamine receptor 1A (Homo sapiens, UniProt P08908), please?
1400

Test system 5-hydroxytryptamine receptor 1A (Homo sapiens, UniProt P08908); read-out Ki; what value for CN(C)[C@@H]1CCc2c(cccc2-c2ccco2)C1 ?
5600

Lab request: please report Ki under test system 5-hydroxytryptamine receptor 1A (Homo sapiens, UniProt P08908) for CN(C)C1CCc2c(cccc2-c2cncc3ccccc23)C1 (racemic)
650

Lab note: need Ki with 5-hydroxytryptamine receptor 1A (Homo sapiens, UniProt P08908) for entry CN(C)[C@H]1CCc2c(cccc2-c2cccn2C)C1 , please look it up.
24

Please provide the recorded Ki for CN(C)C1CCc2c(cccc2-c2cc(F)cc(F)c2)C1 (racemic) , tested on 5-hydroxytryptamine receptor 1A (Homo sapiens, UniProt P08908).
230

Write down the reported Ki of CN(C)[C@@H]1CCc2c(cccc2-c2ccccc2)C1 , test system: 5-hydroxytryptamine receptor 1A (Homo sapiens, UniProt P08908).
1100

Return Ki measured with 5-hydroxytryptamine receptor 1A (Homo sapiens, UniProt P08908) given this molecule: COc1cccc(-c2cccc3c2CCC(N(C)C)C3)c1 (racemic)
73

Return Ki measured with 5-hydroxytryptamine receptor 1A (Homo sapiens, UniProt P08908) given this molecule: CCCN(CCC)[C@@H]1CCc2c(cccc2-c2ccccc2)C1
210

Provide value of Ki for this record tested with 5-hydroxytryptamine receptor 1A (Homo sapiens, UniProt P08908): CN(C)C1CCc2c(cccc2-c2cccc(C(F)(F)F)c2)C1 (racemic)
180

Entry CN(C)C1CCc2c(cccc2-c2cccc3ccccc23)C1 (racemic) , system 5-hydroxytryptamine receptor 1A (Homo sapiens, UniProt P08908): what Ki was measured?
130

Query Ki on 5-hydroxytryptamine receptor 1A (Homo sapiens, UniProt P08908) for CN(C)[C@H]1CCc2c(cccc2-c2ccc(Cl)cc2)C1
190

Recorded Ki for CN(C)C1CCc2c(cccc2-c2ccc(F)cc2Cl)C1 (racemic) with 5-hydroxytryptamine receptor 1A (Homo sapiens, UniProt P08908), please?
33

* * *

So I've got a bunch of compounds here, and I need their log10 Ki values.
Short version: log10 scale, Ki, nM.

For the record CCCN(CCC)[C@H]1CCc2c(cccc2-c2ccccc2F)C1 , what value of log10 Ki is listed for UniProtKB P34969?
0.72

Please tell me: log10 Ki of CN(C)[C@@H]1CCc2c(cccc2-c2ccccc2)C1 , system UniProtKB P34969?
3.72

Quick check: log10 Ki on UniProtKB P34969, item CN(C)C1CCc2c(cccc2-c2ccc(F)cc2)C1 (racemic) ?
2.07

Missing value: log10 Ki, UniProtKB P34969, entry CN(C)C1CCc2c(cccc2-c2c3ccccc3cc3ccccc23)C1 (racemic) . Fill in?
2.65

Param readout= log10 Ki; system= UniProtKB P34969; entry= CN(C)C1CCc2c(cccc2-c2ccccc2Cl)C1 (racemic) ; returns value.
0.62

// lookup log10 Ki | system=UniProtKB P34969 | key= CCCN(CCC)[C@@H]1CCc2c(cccc2-c2ccccc2F)C1
2.87

Find the measured log10 Ki: item CCCN(CCC)[C@@H]1CCc2c(cccc2-c2ccccc2Cl)C1 , target or system UniProtKB P34969.
2.59

So what log10 Ki did CN(C)C1CCc2c(cccc2-c2cc(Cl)cc(Cl)c2)C1 (racemic) get with UniProtKB P34969?
2.60

What reported log10 Ki corresponds to CN(C)[C@H]1CCc2c(cccc2-c2ccc(Cl)cc2)C1 on UniProtKB P34969?
2.20

Query log10 Ki on UniProtKB P34969 for COc1cccc(-c2cccc3c2CCC(N(C)C)C3)c1 (racemic)
1.45

Query for UniProtKB P34969: what log10 Ki does the record show for CN(C)C1CCc2c(cccc2-c2cncc3ccccc23)C1 (racemic) ?
1.99
